Reported % of SP34 by item:
Molecular target: human CD3 on cells (human PBMC; Jurkat TCR/CD3 NFAT reporter cells) (human, UniProt P07766 23-207; P04234 22-171; P09693 23-182)
Sequence (P07766 23-207, chain 1 of 3): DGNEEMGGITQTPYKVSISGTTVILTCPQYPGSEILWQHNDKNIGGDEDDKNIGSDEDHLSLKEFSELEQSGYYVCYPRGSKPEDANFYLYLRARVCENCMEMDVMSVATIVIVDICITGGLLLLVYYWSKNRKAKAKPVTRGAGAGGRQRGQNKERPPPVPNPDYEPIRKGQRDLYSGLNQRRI
Sequence (P04234 22-171, chain 2 of 3): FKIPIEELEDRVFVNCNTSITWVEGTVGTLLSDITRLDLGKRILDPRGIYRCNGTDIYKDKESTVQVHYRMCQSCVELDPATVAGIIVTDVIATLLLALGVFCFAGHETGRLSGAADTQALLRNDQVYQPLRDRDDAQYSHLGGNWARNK
Sequence (P09693 23-182, chain 3 of 3): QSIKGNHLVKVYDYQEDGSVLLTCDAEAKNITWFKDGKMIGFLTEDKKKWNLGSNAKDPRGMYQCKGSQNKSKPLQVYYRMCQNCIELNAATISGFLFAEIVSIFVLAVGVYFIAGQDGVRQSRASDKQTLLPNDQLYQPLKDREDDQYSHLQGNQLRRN
Assay: cell-based or functional assay
Please respond with the number in % and leave the unit unwritten.

# annotated cases, reported % of SP34 shown
Hu153A6B1-7 (antibody, V domains shown, humanized mAb) VH: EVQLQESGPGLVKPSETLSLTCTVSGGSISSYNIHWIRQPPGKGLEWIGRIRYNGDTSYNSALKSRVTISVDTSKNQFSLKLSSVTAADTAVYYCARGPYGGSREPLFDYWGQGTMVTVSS VL: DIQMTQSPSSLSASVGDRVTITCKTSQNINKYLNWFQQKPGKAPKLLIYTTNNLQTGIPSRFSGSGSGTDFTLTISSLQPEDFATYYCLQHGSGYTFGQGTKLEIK	26.9
Hu153A6B1-13 (antibody, V domains shown, humanized mAb) VH: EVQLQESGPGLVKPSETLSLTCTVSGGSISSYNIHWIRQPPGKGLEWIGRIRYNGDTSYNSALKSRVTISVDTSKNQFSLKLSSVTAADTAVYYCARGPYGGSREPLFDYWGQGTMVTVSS VL: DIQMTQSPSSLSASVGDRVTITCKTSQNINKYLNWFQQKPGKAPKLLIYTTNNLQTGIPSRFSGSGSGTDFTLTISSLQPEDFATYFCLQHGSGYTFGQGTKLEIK	23.2

Look up and state reported % of SP34 for Hu155A9B1-1 (antibody, V domains shown, humanized mAb) VH: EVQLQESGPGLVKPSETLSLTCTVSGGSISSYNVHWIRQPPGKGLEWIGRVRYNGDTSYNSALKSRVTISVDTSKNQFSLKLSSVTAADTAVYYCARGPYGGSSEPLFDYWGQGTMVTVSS VL: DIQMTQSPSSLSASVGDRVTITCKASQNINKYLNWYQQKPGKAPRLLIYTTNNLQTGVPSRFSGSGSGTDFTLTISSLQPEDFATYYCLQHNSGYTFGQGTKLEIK
14.2
